B1: IKZF1 (parent)
chain: RDPFECNMCGYHSQDRYEFSSHIT

Variants of: B1
Assay: protein stability index of a GFP-peptide fusion (GPS, HEK-293T) (PSI 1-6); higher = more stable;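 further: lentivirally expressed fusions sorted by FACS into six bins by GFP to DsRed ratio, PSI derived from sequencing read proportions per bin multiplied by bin number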
Details: c terminus: a fixed tail appended
quantity-measured: protein stability index
Please give only the number in your answer, with no unit.

Ask | Dear colleague, please send me the reported protein stability index for "G10T" when you can.
Reply | 2.69

Ask | Dear colleague, please send me the reported protein stability index for "H12Q" when you can.
Reply | 3.01

Ask | Dear colleague, please send me the reported protein stability index for "S13M" when you can.
Reply | 1.66

Ask | Dear colleague, please send me the reported protein stability index for "P3W" when you can.
Reply | 1.69

Ask | Dear colleague, please send me the reported protein stability index for "R16E" when you can.
Reply | 3.15

Ask | Dear colleague, please send me the reported protein stability index for "P3D" when you can.
Reply | 2.99

Ask | Dear colleague, please send me the reported protein stability index for "S21Y" when you can.
Reply | 1.57

Ask | Dear colleague, please send me the reported protein stability index for "F19W" when you can.
Reply | 1.44

Ask | Dear colleague, please send me the reported protein stability index for "N7I" when you can.
Reply | 2.05

Ask | Dear colleague, please send me the reported protein stability index for "E18F" when you can.
Reply | 2.39

Ask | Dear colleague, please send me the reported protein stability index for "Y11S" when you can.
Reply | 2.62

Ask | Dear colleague, please send me the reported protein stability index for "F4S" when you can.
Reply | 2.52

Ask | Dear colleague, please send me the reported protein stability index for "H12R" when you can.
Reply | 2.23

Ask | Dear colleague, please send me the reported protein stability index for "F19I" when you can.
Reply | 2.4

Ask | Dear colleague, please send me the reported protein stability index for "I23W" when you can.
Reply | 1.77

Ask | Dear colleague, please send me the reported protein stability index for "D15M" when you can.
Reply | 2.02

Ask | Dear colleague, please send me the reported protein stability index for "M8E" when you can.
Reply | 3.08

Ask | Dear colleague, please send me the reported protein stability index for "E18D" when you can.
Reply | 2.38

Ask | Dear colleague, please send me the reported protein stability index for "C9T" when you can.
Reply | 3.55

Ask | Dear colleague, please send me the reported protein stability index for "P3T" when you can.
Reply | 2.02

Ask | Dear colleague, please send me the reported protein stability index for "H22V" when you can.
Reply | 1.75

Ask | Dear colleague, please send me the reported protein stability index for "D15T" when you can.
Reply | 2.12
